- TARGET_OR_SYSTEM: Bac-F (respiratory syncytial virus)
- Sequence (P03420 26-524): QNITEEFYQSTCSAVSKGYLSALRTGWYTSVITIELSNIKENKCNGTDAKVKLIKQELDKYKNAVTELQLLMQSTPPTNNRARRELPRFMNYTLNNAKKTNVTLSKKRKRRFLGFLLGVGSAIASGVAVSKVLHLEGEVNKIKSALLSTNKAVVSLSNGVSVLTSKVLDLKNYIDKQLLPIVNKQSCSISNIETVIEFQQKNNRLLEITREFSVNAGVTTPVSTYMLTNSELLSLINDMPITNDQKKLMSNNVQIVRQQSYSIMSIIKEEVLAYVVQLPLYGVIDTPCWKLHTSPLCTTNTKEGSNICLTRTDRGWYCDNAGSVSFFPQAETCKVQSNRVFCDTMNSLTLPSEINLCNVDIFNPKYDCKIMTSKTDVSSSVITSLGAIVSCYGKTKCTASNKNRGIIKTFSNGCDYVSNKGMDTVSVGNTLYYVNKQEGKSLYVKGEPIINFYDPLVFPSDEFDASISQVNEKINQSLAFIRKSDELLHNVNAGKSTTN
- TEST: SPR (BIAcore), mAb vs Bac-F (1:1)
pKd values, listed per item
Keep in mind that pKd stands for -log10 of concentration in molar terms.

For orientation, consider the following solved cases.
- A12a6 IgG (antibody, V domains shown) VH: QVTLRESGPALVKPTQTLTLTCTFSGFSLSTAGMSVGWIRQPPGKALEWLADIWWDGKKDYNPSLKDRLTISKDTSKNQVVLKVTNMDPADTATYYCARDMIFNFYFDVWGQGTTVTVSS VL: DIQMTQSPSTLSASVGDRVTITCSASSRVGYMHWYQQKPGKAPKLLIYDTFKLSSGVPSRFSGSGSGTEFTLTISSLQPDDFATYYCFQGSGYPFTFGGGTKVEIKR: 10.40
- A13c4 IgG (antibody, V domains shown) VH: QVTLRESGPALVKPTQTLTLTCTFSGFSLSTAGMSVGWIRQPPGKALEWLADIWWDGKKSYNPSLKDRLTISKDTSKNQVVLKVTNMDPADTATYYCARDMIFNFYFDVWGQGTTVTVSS VL: DIQMTQSPSTLSASVGDRVTITCSLSSRVGYMHWYQQKPGKAPKLLIYDTMYQSSGVPSRFSGSGSGTEFTLTISSLQPDDFATYYCFQGSGYPFTFGGGTKVEIKR: 9.89
- P11d4 IgG (antibody, V domains shown) VH: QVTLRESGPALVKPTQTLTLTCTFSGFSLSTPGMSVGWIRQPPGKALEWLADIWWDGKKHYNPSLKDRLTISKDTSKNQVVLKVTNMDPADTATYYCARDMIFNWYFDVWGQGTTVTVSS VL: DIQMTQSPSTLSASVGDRVTITCSPSSRVGYMHWYQQKPGKAPKLLIYDTMRLASGVPSRFSGSGSGTEFTLTISSLQPDDFATYYCFQGSGYPFTFGGGTKVEIKR: 9.21
- P12f2 IgG (antibody, V domains shown) VH: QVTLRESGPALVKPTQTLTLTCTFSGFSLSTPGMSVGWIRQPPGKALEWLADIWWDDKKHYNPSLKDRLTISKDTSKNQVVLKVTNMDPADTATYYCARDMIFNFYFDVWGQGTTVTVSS VL: DIQMTQSPSTLSASVGDRVTITCSLSSRVGYMHWYQQKPGKAPKLLIYDTFYLSSGVPSRFSGSGSGTEFTLTISSLQPDDFATYYCFQGSGYPFTFGGGTKVEIKR: 9.51

// next item, pKd requested
The binder listed as A17d4(1) IgG (antibody, V domains shown) VH: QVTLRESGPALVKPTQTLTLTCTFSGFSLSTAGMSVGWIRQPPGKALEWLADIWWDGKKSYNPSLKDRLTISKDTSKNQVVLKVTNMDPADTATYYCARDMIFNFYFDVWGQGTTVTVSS VL: DIQMTQSPSTLSASVGDRVTITCLPSSRVGYMHWYQQKPGKAPKLLIYDTMYQSSGVPSRFSGSGSGTEFTLTISSLQPDDFATYYCFQGSGYPFTFGGGTKVEIKR has a reported pKd of 10.05
